Origin of measurements: paper PMC8878463

molecular target: CYP2D6 (Homo sapiens, UniProt P10635); test: Vivid CYP450 screening kit, CYP2D6 Blue; conditions: human, recombinant CYP2D6 (CYP450 BACULOSOMES Plus Reagent), probe Vivid CYP2D6 Blue substrate
Sequence (P10635 whole entry): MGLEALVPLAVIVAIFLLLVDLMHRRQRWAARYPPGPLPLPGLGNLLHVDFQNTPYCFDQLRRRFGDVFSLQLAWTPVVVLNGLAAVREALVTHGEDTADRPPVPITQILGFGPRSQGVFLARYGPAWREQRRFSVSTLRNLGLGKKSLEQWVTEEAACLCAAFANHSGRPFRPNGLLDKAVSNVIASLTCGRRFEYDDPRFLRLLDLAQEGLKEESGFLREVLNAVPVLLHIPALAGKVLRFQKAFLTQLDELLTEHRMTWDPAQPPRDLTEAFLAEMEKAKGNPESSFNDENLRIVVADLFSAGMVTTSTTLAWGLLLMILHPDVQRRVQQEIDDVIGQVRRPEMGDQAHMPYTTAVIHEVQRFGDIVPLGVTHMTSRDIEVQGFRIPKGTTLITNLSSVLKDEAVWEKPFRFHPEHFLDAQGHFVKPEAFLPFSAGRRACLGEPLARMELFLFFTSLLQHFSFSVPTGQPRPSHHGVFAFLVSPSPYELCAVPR
Parameter: IC50 at 60 min
Form field: result (number plus unit)

Lab entry: CYP2D6 (Homo sapiens, UniProt P10635) assay, compound CCC(C)C(C(=O)NC(C(=O)N1CCCC1c1nc(C(=O)O)cs1)C(C)C)N(CC=C(C)C)CC=C(C)C (stereo not shown) , IC50 at 60 min = 8.6 µM

====

Parameter: pIC50
The quantity pIC50 is defined as the negative base-10 logarithm of the molar concentration.

Sample CCC(C)C(C(=O)NC(C(=O)N1CCCC1c1nc(C(=O)O)cs1)C(C)C)N(CC=C(C)C)CC=C(C)C (stereo not shown) [AEG A] , system: CYP3A4 (Homo sapiens, UniProt P08684). Its pIC50 is 5.24

====

molecular target: CYP2D6 (Homo sapiens, UniProt P10635); assay: Vivid CYP450 screening kit, CYP2D6 Blue; conditions: human
Parameter: inhibition at 60 min, 60 µM (%)
State just the number; it will be interpreted in %.

Observed inhibition at 60 min, 60 µM on CYP2D6 (Homo sapiens, UniProt P10635), entry C=C[C@H]1C[N@@]2CC[C@H]1C[C@@H]2[C@@H](O)c1ccnc2ccc(OC)cc12 [Quinidine, reference compound] , equals 96.2

====

target: CYP2C9 (Homo sapiens); experiment: Vivid CYP450 screening kit, CYP2C9 Blue; settings: 60 µM, 60 min incubation
Sequence (P11712 whole entry): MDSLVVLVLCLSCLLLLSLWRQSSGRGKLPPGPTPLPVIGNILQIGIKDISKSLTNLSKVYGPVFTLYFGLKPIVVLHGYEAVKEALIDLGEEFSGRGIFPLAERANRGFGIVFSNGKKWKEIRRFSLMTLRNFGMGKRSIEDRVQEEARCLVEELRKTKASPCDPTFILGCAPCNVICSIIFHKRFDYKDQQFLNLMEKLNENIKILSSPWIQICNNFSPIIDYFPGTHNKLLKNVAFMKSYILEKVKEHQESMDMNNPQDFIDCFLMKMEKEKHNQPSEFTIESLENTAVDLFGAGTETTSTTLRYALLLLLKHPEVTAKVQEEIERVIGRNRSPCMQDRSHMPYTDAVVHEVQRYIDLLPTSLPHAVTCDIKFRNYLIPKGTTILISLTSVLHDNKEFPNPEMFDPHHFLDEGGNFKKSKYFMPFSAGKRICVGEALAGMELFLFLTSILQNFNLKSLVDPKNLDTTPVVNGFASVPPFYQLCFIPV
Task for the reader: assign each of the following molecules its reported reduction of CYP2C9 activity.
Give the value in % but do not write % after it.

Consider C=CC(C)(C)NC(Cc1ccc(O)cc1)C(=O)NC(C(=O)N1CCCC1C(=O)N1CCCC1c1nc(C(=O)O)cs1)C(C)C (stereo not shown) [AEG625] . Its measured reduction of CYP2C9 activity is 43.9

Short answer for CCC(C)C(C(=O)NC(C(=O)N1CCCC1c1nc(C(=O)O)cs1)C(C)C)N(CC=C(C)C)CC=C(C)C (stereo not shown) [AEG A] : reduction of CYP2C9 activity was 28.7

molecule Nc1ccc(S(=O)(=O)Nc2ccnn2-c2ccccc2)cc1 [sulfaphenazole, reference compound] , reduction of CYP2C9 activity observed: 44.9

Given item C=CC(C)(C)NC(Cc1ccccc1)C(=O)NC(Cc1ccccc1)C(=O)N1CCCC1C(=O)N1CCCC1c1nc(C(=O)O)cs1 (stereo not shown) [AEG657] , the value recorded as its reduction of CYP2C9 activity is 40.7

====

target: CYP2D6 (Homo sapiens); test: Vivid CYP450 screening kit, CYP2D6 Blue; conditions: human, recombinant CYP2D6 (CYP450 BACULOSOMES Plus Reagent), probe Vivid CYP2D6 Blue substrate
Parameter: inhibition at 60 min, 60 µM (%)
Numbers only here, please. The scale is %.

// compound C=CC(C)(C)NC(Cc1ccccc1)C(=O)NC(Cc1ccccc1)C(=O)N1CCCC1C(=O)N1CCCC1c1nc(C(=O)O)cs1 (stereo not shown) , assay CYP2D6 (Homo sapiens), inhibition at 60 min, 60 µM value: 33.2

====

target: CYP2C9 (Homo sapiens); test: Vivid CYP450 screening kit, CYP2C9 Blue; details: human
Parameter: IC50 at 60 min (µM)
Give just the number in µM; leave the unit off.

Let me check: Nc1ccc(S(=O)(=O)Nc2ccnn2-c2ccccc2)cc1 [sulfaphenazole, reference compound] , system CYP2C9 (Homo sapiens), measured IC50 at 60 min is 6.1
